System: EKVX NSCLC
Experimental Details: NCI tumour cell line growth inhibition, 48 h

Compound	TGI
C#CCN(Cc1ccc2nc(-c3ccccc3)c(Cl)nc2c1)c1ccc(Cl)c(Cl)c1	> 100 µM
Cc1cccc(Nc2ncc(-c3ccccc3)o2)c1	> 25 µM
CC(=O)O[C@H]1C(=O)[C@@]2(C)C(C(OC(=O)c3ccccc3)[C@]3(O)CC(OC(=O)C(O)C(NC(=O)c4cccc(Cl)c4)c4ccccc4)C(C)=C1C3(C)C)[C@]1(OC(C)=O)CO[C@@H]1C[C@@H]2O (some centres undefined)	> 10 µM
Clc1ccc(Nc2nnc(COc3ccccc3)c3ccccc23)cc1	7.32 µM

----------
U251 CNS GI50 data
Observed Property: GI50

>>> print(df.to_string())
                                   molecule  readout_value
0               CC(=O)OCc1cc[c]([Hg][Cl])o1        2000 nM
1  C=C1[C@H](O)C[C@@H](C(C)C(O)CC=C(C)C)[C@@H](O)[C@@H]2C(C)=CC[C@@H]12 (some centres undefined)    > 100000 nM
2  Fc1ccc(Nc2ccnc(N3CCN(c4ccnc5cc(Cl)ccc45)CC3)n2)cc1        1870 nM
3  COc1cc(N2CCN(C(C)C)CC2)ccc1Nc1nc(Nc2ccc(F)cc2C(N)=O)c2cc[nH]c2n1        2720 nM
4  CN1CCN(CCCn2c3c(sc4ncccc43)c(=O)n3nnc(-c4ccccc4)c23)CC1        1860 nM
5  O=C1NC(=O)/C(=C/c2ccc3nccc(-c4ccncc4)c3c2)S1         261 nM
6              Nc1ncnc2c1ncn2Cc1ccc(CCl)cc1       21900 nM
7  CS(=O)(=O)Nc1cc(-c2ccc3ncnc(Nc4ccc(OCc5ccccn5)c(Cl)c4)c3c2)cnc1Cl         316 nM
8  O=[N+]([O-])c1ccc(NC(c2ccccc2)c2ccc3cccnc3c2O)cc1 (centres undefined)         418 nM

----------
Each entry below carries its reported TGI.
System: IGROV1 ovarian
Experimental Details: NCI tumour cell line growth inhibition, 48 h
Observed Property: TGI

>>> df
                                    compound  readout_value
 0                     C=CCNc1nc2c(N)ncnc2s1        > 10 µM
 1              Nc1nc(Cl)cc(Oc2ccc(Cl)cc2)n1       > 100 µM
 2  CCN1CCC(O)(/C=C/c2ccc(Cl)c(Cl)c2)C(C(=O)/C=C/c2ccc(Cl)c(Cl)c2)C1 (configuration not stated)        1.71 µM
 3  O=S1c2ccccc2N=C(c2cccs2)CC1c1ccccc1O (configuration not stated)       > 100 µM
 4               CNC(=O)/C(C#N)=C(\N)N1CCCC1       > 100 µM
 5                  O=C(C#Cc1ccccc1)N1CCCCC1       > 100 µM
 6  COC(=O)C1=C(C(=O)OC)SC2(S1)C(C(=O)OC)=C(C(=O)OC)Sc1c2ssc1=O        3.63 µM
 7                      Clc1cc2ns[s+]c2cc1Cl       > 100 µM
 8     CCn1c(C)nc([N+](=O)[O-])c1Sc1ncc[nH]1       > 100 µM
 9         COc1cc(/C=C/[N+](=O)[O-])cc(OC)c1        8.63 µM
10  Cn1cnc([N+](=O)[O-])c1Sc1nnc(-c2ccc(Cl)cc2)n1C        32.7 µM
11  CCOC(=O)C(NS(=O)(=O)c1ccccc1)(C(F)(F)F)P(=O)(OCC(C)C)OCC(C)C (configuration not stated)       > 100 µM

----------
Each entry below carries its reported TGI.
System: CAKI-1 renal
Experimental Details: NCI tumour cell line growth inhibition, 48 h
Observed Property: TGI

In [3]: df
Out[3]:
                                    compound  observed_property  readout_value
 0  COc1cc(-c2cc(-c3ccc(Nc4nc(Nc5ccc(Cl)cc5)nc(Nc5ccc(Cl)cc5)n4)cc3)no2)cc(OC)c1OC                TGI       > 100 µM
 1     Cc1ccnc2[nH]c(-c3ccc(Cl)cc3)cc(=O)c12                TGI       > 100 µM
 2                   O=C(NC1CCCCC1)N1CCNC1=S                TGI       > 100 µM
 3    c1ccc(C(OCCN2CC3CCC(C2)N3)c2ccccc2)cc1                TGI       > 100 µM
 4  NS(=O)(=O)c1ccc(NC(=O)Nc2cccc3ccccc23)cc1                TGI       > 100 µM
 5  CC1NCCC(CC(=O)O)C1CC(=O)O (centres undefined)                TGI       > 100 µM
 6            COc1ccc(/C=N/NC(=O)NCCNCCO)cc1                TGI       > 100 µM
 7  COC(=O)[C@@]1(Cc2ccc(OC(C)=O)cc2)Cc2cc3ccccc3n2N1                TGI       > 100 µM
 8      CCCC(CCC(=O)O)(CCC(=O)O)[N+](=O)[O-]                TGI       > 100 µM
 9  NC(=O)C1CCCN1Cc1ccc2c(c1)OCO2 (centres undefined)                TGI       > 100 µM
10  CC1(/C=C/c2ccc(-c3ccccc3)cc2)CCn2cnc3ncnc(c32)N1O (centres undefined)                TGI        12.2 µM
11  Cc1ccccc1N=C(c1ccccc1)C1C(=O)c2ccccc2C1=O                TGI       > 100 µM
12         Cc1cccc(N=Nc2ccc(O)c(CN(C)C)c2)c1                TGI       > 100 µM
13  COc1c(C(=O)CC2c3c(cc4oc(C)cc(=O)c4c3OC)OC(=N)C2c2nc3ccccc3[nH]2)c(O)c(OC)c2occc12 (centres undefined)                TGI       > 100 µM
14  O=S(=O)(O)c1ccc([Se][Se]c2ccc(S(=O)(=O)O)cc2)cc1                TGI       > 100 µM
15      COc1cccc2c1CCc1sc(CN3CCN(C)CC3)nc1-2                TGI       > 100 µM
16  OC[C@H](O)[C@@H](OCc1ccccc1)[C@H](NCc1ccccc1)c1cccs1                TGI       > 100 µM
17  COc1ccc(CC2OC3(CCCCC3)CC3CCCCN32)cc1 (centres undefined)                TGI       > 100 µM
18                      Clc1cc2ns[s+]c2cc1Cl                TGI       > 100 µM
19  C#CCN(Cc1ccc2nc(-c3ccccc3)c(Cl)nc2c1)c1ccc(Cl)c(Cl)c1                TGI       > 100 µM
20  COc1cc(N2CCN(C(C)C)CC2)ccc1Nc1nc(Nc2ccc(F)cc2C(N)=O)c2cc[nH]c2n1                TGI        5.29 µM
21  Cn1c(SCc2ccc([N+](=O)[O-])cc2)nnc1C12CC3CC(CC(C3)C1)C2                TGI        > 10 µM
22  COC(=O)c1cc(NC(=O)Cn2c3ccccc3c3ccccc32)cn1C                TGI       > 100 µM
23  Cc1cc(NCCCCCCCCNc2cc(C)nc3cc(N(C)C)ccc23)c2ccc(N(C)C)cc2n1                TGI        72.1 µM
24  O=C(Nc1ccc(-c2cn3ccccc3n2)cc1)c1cc(Br)ccc1O                TGI       > 100 µM
25  CN1c2cccc[c]2[Sn]([CH3])([CH3])[c]2ccccc21                TGI    < 0.0356 µM
26  CN1C(=O)CC(CC(=O)C2CCCCC2=O)CC1=O (centres undefined)                TGI       > 100 µM
27  CCCCCCCCC/C=C1/CC(CO)(COC(=O)C2CCCCC2)OC1=O (centres undefined)                TGI       > 100 µM
28  CC1=NN(c2ccccc2)C(=O)C1N=Nc1ccc(Br)cc1C (centres undefined)                TGI       > 100 µM
29  COc1ccc(N2CCN(c3nc(-c4ccccn4)nc4sc5c(c34)CCCCCC5)CC2)cc1                TGI       > 100 µM
30         Cc1cc2nc3c(C)c4ccccc4c(C)n3c2cc1C                TGI        > 10 µM
31  O=C1/C(=C/Cc2ccco2)N=C(c2ccccc2)N1c1nc2ccc(Sc3ccccc3)cc2[nH]1                TGI       > 100 µM
32  Nc1ccc(Oc2ccc(C34CC5CC(C3)CC(c3ccc(Oc6ccc(N)c(O)c6)cc3)(C5)C4)cc2)cc1O                TGI        3.57 µM
33  O=C(NC12CC3CC(CC(C3)C1)C2)n1cnc2c(Cl)ncnc21                TGI       > 100 µM
34                      O=Cc1cc2sc(C=O)cc2s1                TGI       > 100 µM
35  Cc1c2cc[n+](C)cc2c(C)c2c1[nH]c1ccc(OC(C)(C)C)cc12                TGI       > 100 µM
36            Oc1ccccc1-c1cnnc(-c2ccccc2O)c1                TGI        65.2 µM
37  Cc1ccccc1C1SCc2nc3ccccc3n21 (centres undefined)                TGI       > 100 µM
38  Cn1cnc([N+](=O)[O-])c1Sc1nnc(-c2ccc(Cl)cc2)n1C                TGI        29.7 µM
39  O=S1(=O)OCCOS(=O)(=O)C1C1c2ccccc2-c2ccccc21                TGI        98.5 µM
40  NC1=NN(c2ccccc2)C(=O)C1/C(=N\NC(=O)c1cc2ccccc2cc1O)C(=O)Nc1ccc(Cl)c(Cl)c1 (centres undefined)                TGI       > 100 µM
41  O=C(/C=C/c1cc2ccccc2[nH]c1=O)c1ccc(O)cc1                TGI       > 100 µM
42         Oc1ccc(Cl)cc1N=Nc1c(O)ccc2ccccc12                TGI       > 100 µM
43  CCN1C(=O)N(CC)C2C1NN=c1s/c(=C\c3ccc(Br)cc3)c(=O)n12 (centres undefined)                TGI       > 100 µM

Hello, the source for this data is PubChem BioAssay (NCI), in case you need it.
